Field: Ratio (-BP/+BP), DF-5000006. Provide a value for each of the binders that follow.
target: T1, IL-18 binding protein (IL-18BP) (UniProt O95998 31-194)
T1 sequence (looked up): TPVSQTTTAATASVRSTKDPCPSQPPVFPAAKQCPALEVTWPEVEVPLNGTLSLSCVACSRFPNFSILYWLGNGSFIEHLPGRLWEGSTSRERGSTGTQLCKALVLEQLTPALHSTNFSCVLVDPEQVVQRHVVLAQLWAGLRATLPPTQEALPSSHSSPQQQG
protocol.text: cell-based or functional assay

(Q) Give the value of Ratio (-BP/+BP), DF-5000006 reported for the following: IL-18 variant G3Y, E6S, K53S, D54W, S55L, N91I (ligand) YFYKLSSKLSVIRNLNDQVLFIDQGNRPLFEDMTDSDMRDNAPRTIFIISMYSWLQPRGMAVTISVKSEKISTLSSENKIISFKEMNPPDIIKDTKSDIIFFQRSVPGHDNKMQFESSSYEGYFLASEKERDLFKLILKKEDELGDRSIMFTVQNED
(A) 0.95

(Q) Give the value of Ratio (-BP/+BP), DF-5000006 reported for the following: IL-18 variant G3P, E6I, K53N, D54W, S55P, T63S, N91L, R104Q (ligand) YFPKLISKLSVIRNLNDQVLFIDQGNRPLFEDMTDSDMRDNAPRTIFIISMYNWPQPRGMAVSISVKSEKISTLSSENKIISFKEMNPPDLIKDTKSDIIFFQQSVPGHDNKMQFESSSYEGYFLASEKERDLFKLILKKEDELGDRSIMFTVQNED
(A) 0.91
